B1: ANKRD17 (parent)
chain: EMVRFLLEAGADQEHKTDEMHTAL

Variants of: B1
Experiment: protein stability index of a GFP-peptide fusion (GPS, HEK-293T) (PSI 1-6); higher = more stable;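 note: lentivirally expressed fusions sorted by FACS into six bins by GFP to DsRed ratio, PSI derived from sequencing read proportions per bin multiplied by bin number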
Details: c terminus: a fixed tail appended
Classification field: enter true (1) for protein stability index values not below 3, false (0) for values below it.

Query: Is the recorded value of protein stability index equal to or greater than 3 for this variant? V3C
Response: true (1)

Query: Is the recorded value of protein stability index equal to or greater than 3 for this variant? M2H
Response: true (1)

Query: Is the recorded value of protein stability index equal to or greater than 3 for this variant? L6R
Response: true (1)

Query: Is the recorded value of protein stability index equal to or greater than 3 for this variant? K16H
Response: false (0)

Query: Is the recorded value of protein stability index equal to or greater than 3 for this variant? E1Q
Response: false (0)

Query: Is the recorded value of protein stability index equal to or greater than 3 for this variant? E8Y
Response: false (0)

Query: Is the recorded value of protein stability index equal to or greater than 3 for this variant? A9E
Response: true (1)

Query: Is the recorded value of protein stability index equal to or greater than 3 for this variant? D12V
Response: false (0)

Query: Is the recorded value of protein stability index equal to or greater than 3 for this variant? E14N
Response: false (0)

Query: Is the recorded value of protein stability index equal to or greater than 3 for this variant? Q13T
Response: true (1)

Query: Is the recorded value of protein stability index equal to or greater than 3 for this variant? M2A
Response: true (1)

Query: Is the recorded value of protein stability index equal to or greater than 3 for this variant? G10E
Response: true (1)

Query: Is the recorded value of protein stability index equal to or greater than 3 for this variant? H15N
Response: true (1)

Query: Is the recorded value of protein stability index equal to or greater than 3 for this variant? H21W
Response: false (0)

Query: Is the recorded value of protein stability index equal to or greater than 3 for this variant? F5G
Response: true (1)

Query: Is the recorded value of protein stability index equal to or greater than 3 for this variant? G10Y
Response: false (0)

Query: Is the recorded value of protein stability index equal to or greater than 3 for this variant? A23W
Response: true (1)

Query: Is the recorded value of protein stability index equal to or greater than 3 for this variant? A9F
Response: false (0)

Query: Is the recorded value of protein stability index equal to or greater than 3 for this variant? L24D
Response: true (1)

Query: Is the recorded value of protein stability index equal to or greater than 3 for this variant? A11F
Response: false (0)

The values you see were collected from the supplement of paper PMC10567573.
